- target_or_system: T1, hGCGR-mmh (human)
- T1 construct: also called REGN547; monovalent hGCGR
- T1 chain: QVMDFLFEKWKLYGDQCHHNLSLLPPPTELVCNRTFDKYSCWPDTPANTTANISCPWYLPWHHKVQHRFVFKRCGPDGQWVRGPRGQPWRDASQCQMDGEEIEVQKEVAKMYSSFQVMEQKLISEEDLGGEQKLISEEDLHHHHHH
- assay_name: SPR Biacore T100, 25C, mAb captured, antigen flowed
Lab note: compare koff against 0.002 s⁻¹. Equal or greater, write 1. Smaller, write -1.

H4H1339P (antibody, V domains shown, Fully human anti-GCGR antibody; the controls are called isotype-matched hIgG4) VH: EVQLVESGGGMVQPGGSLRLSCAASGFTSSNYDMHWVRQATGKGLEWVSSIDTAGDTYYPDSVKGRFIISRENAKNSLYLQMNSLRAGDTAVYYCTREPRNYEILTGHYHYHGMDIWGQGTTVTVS VL: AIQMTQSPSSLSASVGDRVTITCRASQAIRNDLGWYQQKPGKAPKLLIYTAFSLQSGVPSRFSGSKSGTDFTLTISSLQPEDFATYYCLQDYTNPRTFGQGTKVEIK | -1

Dear colleague, could you confirm whether H4H1327P (antibody, V domains shown, also called anti-GCGR (hIgG4) antibody designated H4H1327P) VH: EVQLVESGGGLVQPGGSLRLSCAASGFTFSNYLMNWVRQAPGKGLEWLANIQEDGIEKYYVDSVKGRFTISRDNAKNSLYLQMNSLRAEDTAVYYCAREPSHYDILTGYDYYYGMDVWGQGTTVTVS VL: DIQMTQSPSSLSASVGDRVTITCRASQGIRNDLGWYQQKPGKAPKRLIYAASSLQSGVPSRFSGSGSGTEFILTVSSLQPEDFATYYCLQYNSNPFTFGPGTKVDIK has koff at or above 0.002 s⁻¹?
-1

Dear colleague, could you confirm whether H4H1328P (antibody, V domains shown, Fully human anti-GCGR antibody; the controls are called isotype-matched hIgG4) VH: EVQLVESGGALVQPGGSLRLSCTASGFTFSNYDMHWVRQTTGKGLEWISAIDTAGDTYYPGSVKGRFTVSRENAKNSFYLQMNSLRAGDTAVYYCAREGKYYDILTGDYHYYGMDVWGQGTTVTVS VL: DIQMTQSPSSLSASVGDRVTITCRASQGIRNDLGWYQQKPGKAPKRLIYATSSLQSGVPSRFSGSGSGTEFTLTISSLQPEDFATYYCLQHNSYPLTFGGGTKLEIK has koff at or above 0.002 s⁻¹?
1

Dear colleague, could you confirm whether H4H1331P (antibody, V domains shown, Fully human anti-GCGR antibody; the controls are called isotype-matched hIgG4) VH: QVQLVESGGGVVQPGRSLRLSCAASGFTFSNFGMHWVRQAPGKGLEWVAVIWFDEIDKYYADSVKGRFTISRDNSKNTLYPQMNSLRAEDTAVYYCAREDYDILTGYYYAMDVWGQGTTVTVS VL: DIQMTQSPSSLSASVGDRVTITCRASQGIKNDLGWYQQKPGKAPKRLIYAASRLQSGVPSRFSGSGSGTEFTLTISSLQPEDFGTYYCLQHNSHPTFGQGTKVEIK has koff at or above 0.002 s⁻¹?
-1

Dear colleague, could you confirm whether H4H1321P (antibody, V domains shown, Fully human anti-GCGR antibody; the controls are called isotype-matched hIgG4) VH: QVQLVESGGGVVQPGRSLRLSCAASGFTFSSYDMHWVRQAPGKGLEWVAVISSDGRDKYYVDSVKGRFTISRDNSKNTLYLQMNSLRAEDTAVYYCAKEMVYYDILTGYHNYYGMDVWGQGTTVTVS VL: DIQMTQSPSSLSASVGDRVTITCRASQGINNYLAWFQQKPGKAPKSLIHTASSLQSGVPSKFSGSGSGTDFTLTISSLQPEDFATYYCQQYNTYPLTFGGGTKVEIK has koff at or above 0.002 s⁻¹?
1

Dear colleague, could you confirm whether H4H1765N (antibody, V domains shown, Anti-GCGR antibody from hybridoma; the controls are called isotype-matched hIgG4) VH: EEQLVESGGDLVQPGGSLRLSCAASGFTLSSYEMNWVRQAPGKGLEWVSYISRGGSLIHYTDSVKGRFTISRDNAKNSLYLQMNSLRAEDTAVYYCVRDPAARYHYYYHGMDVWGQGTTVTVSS VL: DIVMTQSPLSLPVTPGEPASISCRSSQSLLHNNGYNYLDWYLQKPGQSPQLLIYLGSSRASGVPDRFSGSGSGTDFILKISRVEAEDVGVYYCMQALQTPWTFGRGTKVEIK has koff at or above 0.002 s⁻¹?
-1
